# study.system: T1, Recombinant Human DLL4 (delta-like protein 4) (human, UniProt Q9NR61 27-524)
# T1 construct: Bought recombinant human DLL4 coated on the ELISA plate; also called rHuman DLL4
# assay: ELISA, DLL4 coated on plate, Fab at 25 nM (2-fold dilution series), absorbance at 450 nm
measured.metric: ELISA signal
# answer = number (no unit)

Would you please look over these solved cases?
- Fab VH5-51_IGHD5-18*01>3_IGHJ4*01 G100K/G104T S28R (KT S28R) & V3-4_IGLJ1*01 (wildtype) (Fab, V domains shown, Fab; Expressed in E. coli with CH1 (plasmid A, His6 and Flag tags) and lambda CL (plasmid E); also called H:KT S28R & L:wt) VH: EVQLVQSGAEVKKPGESLKISCKGSGYRFTSYWIGWVRQMPGKGLEWMGIIYPGDSDTRYSPSFQGQVTISADKSISTAYLQWSSLKASDTAMYYCARRKYSYTYDYFDYWGQGTLVTVSS VL: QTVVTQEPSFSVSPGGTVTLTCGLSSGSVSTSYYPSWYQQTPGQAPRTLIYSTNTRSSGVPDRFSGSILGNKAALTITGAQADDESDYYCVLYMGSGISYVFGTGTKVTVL: 0.2
- Fab VH5-51_IGHD5-18*01>3_IGHJ4*01 G100K/G104T G24T/S28R/G35V (KT TRV) & V3-4_IGLJ1*01 V91L/S96P S52Y (Fab, V domains shown, Fab; Expressed in E. coli with CH1 (plasmid A, His6 and Flag tags) and lambda CL (plasmid E); also called H:KT TRV & L:LP S52Y) VH: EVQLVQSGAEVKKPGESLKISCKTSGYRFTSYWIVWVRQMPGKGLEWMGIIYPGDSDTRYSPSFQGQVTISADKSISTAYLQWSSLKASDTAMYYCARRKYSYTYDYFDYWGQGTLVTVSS VL: QTVVTQEPSFSVSPGGTVTLTCGLSSGSVSTSYYPSWYQQTPGQAPRTLIYYTNTRSSGVPDRFSGSILGNKAALTITGAQADDESDYYCLLYMGPGISYVFGTGTKVTVL: 0.56
- Fab VH5-51_IGHD5-18*01>3_IGHJ4*01 G100K/G104T G24T/S28R/G35V (KT TRV) & V3-4_IGLJ1*01 V91L/S96P S52G (LP S52G) (Fab, V domains shown, Fab; Expressed in E. coli with CH1 (plasmid A, His6 and Flag tags) and lambda CL (plasmid E); also called H:KT TRV & L:LP S52G) VH: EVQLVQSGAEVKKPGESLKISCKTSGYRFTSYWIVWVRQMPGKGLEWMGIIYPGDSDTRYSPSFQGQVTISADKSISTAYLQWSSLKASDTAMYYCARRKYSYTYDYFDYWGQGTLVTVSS VL: QTVVTQEPSFSVSPGGTVTLTCGLSSGSVSTSYYPSWYQQTPGQAPRTLIYGTNTRSSGVPDRFSGSILGNKAALTITGAQADDESDYYCLLYMGPGISYVFGTGTKVTVL: 0.9
- Fab VH5-51_IGHD5-18*01>3_IGHJ4*01 & V3-4_IGLJ1*01 (parental, wildtype) (Fab, V domains shown, Fab; Expressed in E. coli with CH1 (plasmid A, His6 and Flag tags) and lambda CL (plasmid E); also called Wildtype & Wildtype; parent Hit Fab) VH: EVQLVQSGAEVKKPGESLKISCKGSGYSFTSYWIGWVRQMPGKGLEWMGIIYPGDSDTRYSPSFQGQVTISADKSISTAYLQWSSLKASDTAMYYCARRGYSYGYDYFDYWGQGTLVTVSS VL: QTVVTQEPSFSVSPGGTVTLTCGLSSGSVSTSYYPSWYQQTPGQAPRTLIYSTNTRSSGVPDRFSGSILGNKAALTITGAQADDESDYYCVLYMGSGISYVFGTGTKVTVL: 0.18

Proceed to the following item.
Kindly indicate its recorded ELISA signal. Item: Fab VH5-51_IGHD5-18*01>3_IGHJ4*01 G100K/G104T G24A/S28R/G35V (KT ARV) & V3-4_IGLJ1*01 V91L/S96P S52I (Fab, V domains shown, Fab; Expressed in E. coli with CH1 (plasmid A, His6 and Flag tags) and lambda CL (plasmid E); also called G100K/G104T G24A/S28R/G35V & V91L/S96P S52I) VH: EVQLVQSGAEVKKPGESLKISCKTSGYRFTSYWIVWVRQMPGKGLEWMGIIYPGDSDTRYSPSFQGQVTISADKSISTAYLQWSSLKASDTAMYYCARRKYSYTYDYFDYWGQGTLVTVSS VL: QTVVTQEPSFSVSPGGTVTLTCGLSSGSVSTSYYPSWYQQTPGQAPRTLIYITNTRSSGVPDRFSGSILGNKAALTITGAQADDESDYYCLLYMGPGISYVFGTGTKVTVL
0.6
